Where do these numbers come from? They come from PubChem BioAssay.

Could you please report measured z-score for the items listed next?
experiment: adipocyte viability effects, profiling panel, cell-based, 3T3-L1 adipocytes, calcein-AM fluorescence, 48 h, basal (AID 1163); conditions: 3T3-L1 adipocytes viability, higher = more signal
# respond with the number and nothing more

Exercise: Look up z-score of CCCCCN1CC=CC23O[C@@H]4/C=C\CCC(C)OC(=O)C4[C@H]2C(=O)N(CCCCCCO)[C@@H]3C1=O (stereo not given in full) and report it.
Solution: 0.644

Exercise: Look up z-score of `C=CCNC(=O)[C@@H]1[C@H]2C(=O)O[C@H](c3ccccc3)[C@H](c3ccccc3)N2[C@H](c2ccc(O)cc2)[C@@]12C(=O)Nc1ccc(C#CCC(C(=O)OC)C(=O)OC)cc12` and report it.
Solution: -0.937

Exercise: Look up z-score of `C=C(C(=O)CC[C@H](OC(=O)c1ccccc1-c1ccccc1C(=O)O)c1ccccc1OCCO)C(C)C` and report it.
Solution: 1.72

Exercise: Look up z-score of `C=CCOC(=O)[C@H]1[C@@H]2C(=O)O[C@@H](c3ccccc3)[C@@H](c3ccccc3)N2[C@@H](c2ccc(OCCOC(=O)[C@H]3C[C@H]4C(=O)N[C@@H](CCCCNC(C)=O)C(=O)N4[C@H]3c3cccc(OCCO)c3)cc2)[C@]12C(=O)Nc1ccc(I)cc12` and report it.
Solution: 1.5

Exercise: Look up z-score of `O=C1O[C@H](c2ccccc2)[C@H](c2ccccc2)N2[C@H]1[C@@H](C(=O)O)[C@]1(C(=O)Nc3ccc(C#CC4(O)CCCCCC4)cc31)[C@H]2c1ccc(O)cc1` and report it.
Solution: 0.685

###

tested on: Inhibin beta A chain (activin A); experiment: INHBA (activin A) binders on microarrays, primary screen, biochemical, small-molecule microarray, 635 nm fluorescence scan (AID 1107); conditions: small-molecule microarray binding, higher = more signal;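 further: mouse activin A protein probed at 4.33 µg/mL on printed slides; score merges bound-protein fluorescence near 667 nm with spot signal-to-noise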
readout_type: composite z-score
# respond with the number and nothing more

Exercise: Look up composite z-score of `CC(C)(C)OC(=O)CC[C@]1(C(=O)N2CCCCC2)COC(c2ccc(OCCCO)cc2)=N1` and report it.
Solution: 0.567

Exercise: Look up composite z-score of C=CCC(OC(C)=O)[C@@H]1[C@@H](N(Cc2ccc(-c3ccccc3)cc2)C(=O)c2ccc(C)cc2)c2cc(OCCCO)ccc2N1C(=O)Cc1ccc2ccccc2c1 (some centres undefined) and report it.
Solution: 0.567

Exercise: Look up composite z-score of COc1ccc(C(O)C2C=CC3C(=O)N(c4ccccc4)C(=O)C3N2Nc2ccc(C(C)C)cc2)c2ccccc12 (centres undefined) and report it.
Solution: 0.87

Exercise: Look up composite z-score of `COc1ccc([Si](C)(C)[C@H]2[C@H](CC(=O)N3CCC[C@H]3CO)O[C@@]3(C(=O)N(Cc4ccc(N5CCC5=O)cc4)c4ccccc43)[C@@H]2C)cc1` and report it.
Solution: -0.525

###

Could you please report measured composite z-score for the items listed next?
system: XIP peptide (Xip251-270) binding; experiment: small-molecule binders of XIP peptide, primary screen, biochemical, small-molecule microarray, fluorescence 635/667 nm, 0.1 µg/mL protein (AID 1182); details: fluorescent protein binding, 635 nm, higher = more signal, called active from +8 up or from −8 down
# respond with the number and nothing more

Exercise: Look up composite z-score of `CN(C)C(=O)[C@@]1(Cc2ccccc2)COC(c2ccc(OCCCO)cc2)=N1` and report it.
Solution: 0.205

Exercise: Look up composite z-score of `[N-]=[N+]=Nc1ccccc1C[C@]1(C(=O)NCc2ccccc2)COC(c2ccc(OCCCO)cc2)=N1` and report it.
Solution: 0.261

Exercise: Look up composite z-score of CCCCCCCCCCC(O)C1C=CC2C(=O)N(c3ccccc3)C(=O)C2N1Nc1ccccc1F (stereo not given) and report it.
Solution: 1.69

Exercise: Look up composite z-score of O=C1C2C=CC(C(O)c3ccco3)N(Nc3ccccc3)C2C(=O)N1c1ccccc1 (stereo not given) and report it.
Solution: 1.11

Exercise: Look up composite z-score of `COc1ccc(C(=O)Nc2cccc(CN3C(=O)[C@]4(O[C@H](CCn5cc([C@H](O)c6ccccc6)nn5)[C@@H]([Si](C)(C)c5ccc(OC)cc5)[C@@H]4C)c4ccccc43)c2)cc1` and report it.
Solution: 0.0632

Exercise: Look up composite z-score of `C=CCNC(=O)[C@@H]1[C@H]2C(=O)O[C@H](c3ccccc3)[C@H](c3ccccc3)N2[C@H](c2ccc(O)cc2)[C@@]12C(=O)Nc1ccc(C#CCC(C(=O)OC)C(=O)OC)cc12` and report it.
Solution: 1.03

Exercise: Look up composite z-score of CC1CC/C=C\[C@H]2OC34C=CCN(C(C)(C)C)C(=O)[C@H]3N(C(CO)C(C)C)C(=O)[C@@H]4C2C(=O)O1 (stereo not given in full) and report it.
Solution: 1.27

Exercise: Look up composite z-score of COCC1C2CC[C@H]3C(OCc4ccc(OC)cc4)OC[C@]4(C)[C@H]3C2=C(CN4C(=O)OC(C)(C)C)[C@H](C)C1COC (stereo not given in full) and report it.
Solution: -0.272

Exercise: Look up composite z-score of `COC(=O)[C@@]1(Cc2ccc(F)cc2)[C@H]2c3cc(C(=O)N(C)C)n(Cc4c(CO)[nH]cc(C)c4=O)c3C[C@H]2CN1C(=O)c1ccccc1` and report it.
Solution: 0.493

Exercise: Look up composite z-score of `CC(C)(C)OC(=O)CC[C@]1(C(=O)N2CCCCC2)COC(c2ccc(OCCCO)cc2)=N1` and report it.
Solution: 0.252

Exercise: Look up composite z-score of `COc1ccc([Si](C)(C)[C@H]2[C@H](CC(=O)N3CCC[C@H]3CO)O[C@@]3(C(=O)N(Cc4ccc(N5CCC5=O)cc4)c4ccccc43)[C@@H]2C)cc1` and report it.
Solution: 1.18

Exercise: Look up composite z-score of `O=C1N(CCS(=O)(=O)c2ccccc2)Cc2ccccc2[C@@H]2OC(c3ccc(OCCCO)cc3)=N[C@]12CCS(=O)(=O)c1ccccc1` and report it.
Solution: 1.25

Exercise: Look up composite z-score of O=C1NC(=O)C2C1C=CC(C(O)c1ccccn1)N2Nc1ccc(Cl)cc1Cl (stereo not given) and report it.
Solution: 0.628

Exercise: Look up composite z-score of `C=C(C(=O)CC[C@@H](OC(=O)c1ccccc1-c1ccccc1C(=O)O)c1ccccc1OCCO)C(C)C` and report it.
Solution: 0.341

Exercise: Look up composite z-score of `CC(C)C[C@@H]1NC(=O)[C@@H]2C[C@H](C(=O)NCCCCCC[N+](C)(C)C)[C@H](c3cccc(OCCO)c3)N2C1=O` and report it.
Solution: 0.753
